Organism: Mus musculus
Method notes: In vitro reversal activity versus ~90% block by rocuronium in isolated mouse hemidiaphragm, expressed as % of maximum reversal at 18 uM conc.
Format: functional
Recorded Max reversal for the following molecules
API: value field is a number in %; no unit string.

{"Molecule": "O=C([O-])CCc1cccc(SCC2O[C@@H]3O[C@@H]4C(CO)O[C@H](O[C@@H]5C(CO)O[C@H](O[C@@H]6C(CO)O[C@H](O[C@@H]7C(CO)O[C@H](O[C@@H]8C(CO)O[C@H](O[C@@H]9C(CO)O[C@H](O[C@@H]%10C(CO)O[C@H](O[C@H]2C(O)C3O)C(O)C%10O)C(O)C9O)C(O)C8O)C(O)C7O)C(O)C6O)C(O)C5O)C(O)C4O)c1.[Na+] (stereo partly drawn)", "Scale unit": "%", "Assay value": 3.9}
{"Molecule": "O=C([O-])Cc1ccc(SCC2O[C@@H]3O[C@@H]4C(CO)O[C@H](O[C@@H]5C(CO)O[C@H](O[C@@H]6C(CO)O[C@H](O[C@@H]7C(CO)O[C@H](O[C@@H]8C(CO)O[C@H](O[C@@H]9C(CO)O[C@H](O[C@@H]%10C(CO)O[C@H](O[C@H]2C(O)C3O)C(O)C%10O)C(O)C9O)C(O)C8O)C(O)C7O)C(O)C6O)C(O)C5O)C(O)C4O)cc1.[Na+] (stereo partly drawn)", "Scale unit": "%", "Assay value": 45}

Please turn your attention to the following entry.
### Prompt Which Max reversal is listed for O=C([O-])c1cccc(SCC2O[C@@H]3O[C@@H]4C(CO)O[C@H](O[C@@H]5C(CO)O[C@H](O[C@@H]6C(CO)O[C@H](O[C@@H]7C(CO)O[C@H](O[C@@H]8C(CO)O[C@H](O[C@@H]9C(CO)O[C@H](O[C@@H]%10C(CO)O[C@H](O[C@H]2C(O)C3O)C(O)C%10O)C(O)C9O)C(O)C8O)C(O)C7O)C(O)C6O)C(O)C5O)C(O)C4O)c1.[Na+] (stereo partly drawn) ?
### Response 36.1

* * *

Species: Mus musculus
Method notes: In vitro reversal activity versus ~90% block by rocuronium in isolated mouse hemidiaphragm, expressed as effective conc.
Format: functional
Parameter measured: pEC50
The read-out pEC50 is expressed as -log10 of concentration in moles per litre.

{"Molecule": "O=C([O-])CSCC1O[C@@H]2O[C@@H]3C(CO)O[C@H](O[C@@H]4C(CO)O[C@H](O[C@@H]5C(CO)O[C@H](O[C@@H]6C(CO)O[C@H](O[C@@H]7C(CO)O[C@H](O[C@@H]8C(CO)O[C@H](O[C@@H]9C(CO)O[C@H](O[C@H]1C(O)C2O)C(O)C9O)C(O)C8O)C(O)C7O)C(O)C6O)C(O)C5O)C(O)C4O)C(O)C3O.[Na+] (some centres not stated)", "Assay value": 4.22}

### Prompt Which pEC50 is listed for Oc1ccc(SCC2O[C@@H]3O[C@@H]4C(CSc5ccc(O)cc5)O[C@H](O[C@@H]5C(CSc6ccc(O)cc6)O[C@H](O[C@@H]6C(CSc7ccc(O)cc7)O[C@H](O[C@@H]7C(CSc8ccc(O)cc8)O[C@H](O[C@@H]8C(CSc9ccc(O)cc9)O[C@H](O[C@@H]9C(CSc%10ccc(O)cc%10)O[C@H](O[C@@H]%10C(CSc%11ccc(O)cc%11)O[C@H](O[C@H]2C(O)C3O)C(O)C%10O)C(O)C9O)C(O)C8O)C(O)C7O)C(O)C6O)C(O)C5O)C(O)C4O)cc1 (some centres not stated) ?
### Response 5.31

Provenance of the data: ChEMBL document CHEMBL1135836
